Below is a list of entries, each paired with its recorded Ratio (mean MIC vancomycin-resistant strains / mean MIC vancomycin-susceptible strains) value.
# Tested on: vancomycin-resistant (Vanco^r) E. faecium and E. faecalis
# Method notes: Susceptibility of vancomycin-resistant enterococci, agar-dilution MIC
# Type: cell-based
# Method: End points were read after 24-hour incubation. The ratio was calculated by dividing the mean MIC of the compound against the vancomycin-resistant strains by the mean MIC of the compound against the vancomycin-susceptible strains.
Parameter: Ratio (mean MIC vancomycin-resistant strains / mean MIC vancomycin-susceptible strains)

Smiles entry: CN[C@H](CC(C)C)C(=O)N[C@H]1C(=O)N[C@@H](CC(N)=O)C(=O)N[C@H]2C(=O)N[C@H]3C(=O)N[C@H](C(=O)N[C@H](C(=O)O)c4cc(O)cc(O)c4-c4cc3ccc4O)[C@H](O[C@H]3C[C@](C)(N)[C@@H](O)[C@H](C)O3)c3ccc(c(Cl)c3)Oc3cc2cc(c3O[C@@H]2O[C@H](CO)[C@@H](O)[C@H](O)[C@H]2O[C@H]2C[C@](C)(NCCc3ccccc3)[C@@H](O)[C@H](C)O2)Oc2ccc(cc2Cl)[C@H]1O
Target or test system: vancomycin-resistant (Vanco^r) E. faecium and E. faecalis
Test value: 5.2

Smiles entry: CCCCCCCCCCN[C@@]1(C)C[C@H](O[C@H]2[C@H](Oc3c4cc5cc3Oc3ccc(cc3Cl)[C@@H](O[C@H]3C[C@](C)(N)[C@@H](O)[C@H](C)O3)[C@@H]3NC(=O)[C@H](NC(=O)[C@@H]5NC(=O)[C@H](CC(N)=O)NC(=O)[C@H](NC(=O)[C@@H](CC(C)C)NC)[C@H](O)c5ccc(c(Cl)c5)O4)c4ccc(O)c(c4)-c4c(O)cc(O)cc4[C@@H](C(=O)O)NC3=O)O[C@H](CO)[C@@H](O)[C@@H]2O)O[C@@H](C)[C@@H]1O
Target or test system: vancomycin-resistant (Vanco^r) E. faecium and E. faecalis
Test value: 2.7

Smiles entry: CCCCCCCCN[C@@]1(C)C[C@H](O[C@H]2[C@H](Oc3c4cc5cc3Oc3ccc(cc3Cl)[C@@H](O)[C@@H](NC(=O)[C@@H](CC(C)C)NC)C(=O)N[C@@H](CC(N)=O)C(=O)N[C@H]5C(=O)N[C@H]3C(=O)N[C@H](C(=O)N[C@H](C(=O)O)c5cc(O)cc(O)c5-c5cc3ccc5O)[C@H](O[C@H]3C[C@](C)(N)[C@@H](O)[C@H](C)O3)c3ccc(cc3)O4)O[C@H](CO)[C@@H](O)[C@@H]2O)O[C@@H](C)[C@@H]1O
Target or test system: vancomycin-resistant (Vanco^r) E. faecium and E. faecalis
Test value: 4.9

----------
# Test system: Enterococcus faecium X66
# Method notes: MIC, standard agar-dilution assay
# Assay type: cell-based

Compound: CN[C@H](CC(C)C)C(=O)N[C@H]1C(=O)N[C@@H](CC(N)=O)C(=O)N[C@H]2C(=O)N[C@H]3C(=O)N[C@H](C(=O)N[C@H](C(=O)O)c4cc(O)cc(O)c4-c4cc3ccc4O)[C@H](O[C@H]3C[C@](C)(NCc4ccc(Cl)cc4)[C@@H](O)[C@H](C)O3)c3ccc(cc3)Oc3cc2cc(c3O[C@@H]2O[C@H](CO)[C@@H](O)[C@H](O)[C@H]2O[C@H]2C[C@](C)(NCc3ccc(Cl)cc3)[C@@H](O)[C@H](C)O2)Oc2ccc(cc2Cl)[C@H]1O [Compound 23]
MIC / µg/mL: 4
//
Compound: CCCCCNC1(C)CC(OC2c3ccc(c(Cl)c3)Oc3cc4cc(c3OC3OC(CO)C(O)C(O)C3O)Oc3ccc(cc3Cl)C(O)C(NC(=O)C(CC(C)C)NC)C(=O)NC(CC(N)=O)C(=O)NC4C(=O)NC3C(=O)NC2C(=O)NC(C(=O)O)c2cc(O)cc(O)c2-c2cc3ccc2O)OC(C)C1O (stereo not drawn) [Compound 77]
MIC / µg/mL: 2
//
Compound: CN[C@H](CC(C)C)C(=O)N[C@H]1C(=O)N[C@@H](CC(N)=O)C(=O)N[C@H]2C(=O)N[C@H]3C(=O)N[C@H](C(=O)N[C@H](C(=O)O)c4cc(O)cc(O)c4-c4cc3ccc4O)[C@H](O[C@H]3C[C@](C)(N)[C@@H](O)[C@H](C)O3)c3ccc(cc3)Oc3cc2cc(c3O[C@@H]2O[C@H](CO)[C@@H](O)[C@H](O)[C@H]2O[C@H]2C[C@](C)(NCc3ccc(Br)cc3)[C@@H](O)[C@H](C)O2)Oc2ccc(cc2Cl)[C@H]1O [Compound 18]
MIC / µg/mL: 1

----------
# Test system: Enterococcus faecium X66
# Method notes: MIC, standard agar-dilution assay
# Assay type: cell-based
Parameter: MIC (µg/mL)

Smiles entry: CCCCCN[C@@]1(C)C[C@H](O[C@H]2[C@H](Oc3c4cc5cc3Oc3ccc(cc3Cl)[C@@H](O)[C@@H](NC(=O)[C@@H](CC(C)C)N(C)CCCCC)C(=O)N[C@@H](CC(N)=O)C(=O)N[C@H]5C(=O)N[C@H]3C(=O)N[C@H](C(=O)N[C@H](C(=O)O)c5cc(O)cc(O)c5-c5cc3ccc5O)[C@H](O[C@H]3C[C@](C)(N)[C@@H](O)[C@H](C)O3)c3ccc(cc3)O4)O[C@H](CO)[C@@H](O)[C@@H]2O)O[C@@H](C)[C@@H]1O
Target or test system: Enterococcus faecium X66
Test value: 2

----------
# Tested on: Staphylococcus epidermidis EPI270
# Method notes: MIC, standard agar-dilution assay
# Format: cell-based

Compound: CNC(CC(C)C)C(=O)NC1C(=O)NC(CC(N)=O)C(=O)NC2C(=O)NC3C(=O)NC(C(=O)NC(C(=O)O)c4cc(O)cc(O)c4-c4cc3ccc4O)C(OC3CC(C)(N)C(O)C(C)O3)c3ccc(c(Cl)c3)Oc3cc2cc(c3OC2OC(CO)C(O)C(O)C2OC2CC(C)(NCc3ccccc3Cl)C(O)C(C)O2)Oc2ccc(cc2Cl)C1O (centres unmarked) [Compound 62]
MIC [µg/mL]: 1

----------
MIC overview
# Test system: Enterococcus faecium X66
# Method notes: MIC, standard agar-dilution assay
# Format: cell-based
Parameter: MIC

Compound: CCCCCN[C@@]1(C)C[C@H](O[C@H]2[C@H](Oc3c4cc5cc3Oc3ccc(cc3Cl)[C@@H](O[C@H]3C[C@](C)(N)[C@@H](O)[C@H](C)O3)[C@@H]3NC(=O)[C@H](NC(=O)[C@@H]5NC(=O)[C@H](CC(N)=O)NC(=O)[C@H](NC(=O)[C@@H](CC(C)C)NC)[C@H](O)c5ccc(c(Cl)c5)O4)c4ccc(O)c(c4)-c4c(O)cc(O)cc4[C@@H](C(=O)O)NC3=O)O[C@H](CO)[C@@H](O)[C@@H]2O)O[C@@H](C)[C@@H]1O
Parameter: MIC
Test value: .5 µg/mL
//
Compound: CCN(CC)c1ccc(CNC2(C)CC(OC3C(Oc4c5cc6cc4Oc4ccc(cc4Cl)C(OC4CC(C)(N)C(O)C(C)O4)C4NC(=O)C(NC(=O)C6NC(=O)C(CC(N)=O)NC(=O)C(NC(=O)C(CC(C)C)NC)C(O)c6ccc(c(Cl)c6)O5)c5ccc(O)c(c5)-c5c(O)cc(O)cc5C(C(=O)O)NC4=O)OC(CO)C(O)C3O)OC(C)C2O)cc1 (centres unmarked)
Parameter: MIC
Test value: 1 µg/mL

----------
Item-by-item account of MIC
# System: Klebsiella pneumoniae X68
# Method notes: MIC, standard agar-dilution assay
# Assay type: cell-based
# Method: The formula I compounds have in vitro and in vivo activity against Gram-positive pathogenic bacteria. The MIC's were determined using a standard agar-dilution assays.

Molecule: CCCCCN(C)[C@H](CC(C)C)C(=O)N[C@H]1C(=O)N[C@@H](CC(N)=O)C(=O)N[C@H]2C(=O)N[C@H]3C(=O)N[C@H](C(=O)N[C@H](C(=O)O)c4cc(O)cc(O)c4-c4cc3ccc4O)[C@H](O[C@H]3C[C@](C)(N)[C@@H](O)[C@H](C)O3)c3ccc(c(Cl)c3)Oc3cc2cc(c3O[C@@H]2O[C@H](CO)[C@@H](O)[C@H](O)[C@H]2O[C@H]2C[C@](C)(N)[C@@H](O)[C@H](C)O2)Oc2ccc(cc2Cl)[C@H]1O [Compound 35]
MIC: > 128 µg/mL
//
Molecule: CCCCCN(C)[C@H](CC(C)C)C(=O)N[C@H]1C(=O)N[C@@H](CC(N)=O)C(=O)N[C@H]2C(=O)N[C@H]3C(=O)N[C@H](C(=O)N[C@H](C(=O)O)c4cc(O)cc(O)c4-c4cc3ccc4O)[C@H](O[C@H]3C[C@](C)(N)[C@@H](O)[C@H](C)O3)c3ccc(cc3)Oc3cc2cc(c3O[C@@H]2O[C@H](CO)[C@@H](O)[C@H](O)[C@H]2O[C@H]2C[C@](C)(N)[C@@H](O)[C@H](C)O2)Oc2ccc(cc2Cl)[C@H]1O [Compound 6]
MIC: > 128 µg/mL
